Hi there, I'd appreciate the recorded IC50 for every entry that follows.
target: STAT5a (Homo sapiens, UniProt P42229); assay: Fluorescence polarization (FP) binding assay, STAT5a
Sequence (P42229 whole entry, species assumed): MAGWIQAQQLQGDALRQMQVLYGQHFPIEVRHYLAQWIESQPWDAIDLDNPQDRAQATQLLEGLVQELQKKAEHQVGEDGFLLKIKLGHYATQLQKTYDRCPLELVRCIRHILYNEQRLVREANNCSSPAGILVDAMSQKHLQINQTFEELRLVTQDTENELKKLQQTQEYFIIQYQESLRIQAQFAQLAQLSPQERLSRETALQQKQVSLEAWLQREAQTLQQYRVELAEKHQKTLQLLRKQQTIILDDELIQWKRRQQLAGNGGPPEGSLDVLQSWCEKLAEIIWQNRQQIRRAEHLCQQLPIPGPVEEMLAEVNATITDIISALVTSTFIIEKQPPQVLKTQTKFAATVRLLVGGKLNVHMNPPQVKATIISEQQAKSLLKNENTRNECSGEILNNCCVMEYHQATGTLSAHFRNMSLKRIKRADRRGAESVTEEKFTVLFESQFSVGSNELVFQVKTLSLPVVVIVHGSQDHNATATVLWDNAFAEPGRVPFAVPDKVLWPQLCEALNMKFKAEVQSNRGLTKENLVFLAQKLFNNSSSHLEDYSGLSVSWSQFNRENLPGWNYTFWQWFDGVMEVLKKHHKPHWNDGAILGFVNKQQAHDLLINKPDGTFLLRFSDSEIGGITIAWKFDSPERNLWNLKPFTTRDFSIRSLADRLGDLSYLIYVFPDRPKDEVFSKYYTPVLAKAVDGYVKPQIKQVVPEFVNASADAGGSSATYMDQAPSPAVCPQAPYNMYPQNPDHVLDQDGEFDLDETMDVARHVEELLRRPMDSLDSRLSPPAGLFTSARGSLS
Note: unit µM is implicit; provide only the numeric part.

Req: Name the recorded IC50 of COc1cc(-c2cc(OP(=O)(O)O)cc(-c3ccc(Cl)c(F)c3)c2)cc(OC)c1OC [6 e] , assay system STAT5a (Homo sapiens, UniProt P42229).
Resp: 34.7

Req: Name the recorded IC50 of COc1cc(-c2cc(OP(=O)(O)O)cc(-c3ccc(C(C)C)cc3)c2)cc(OC)c1OC [6 i] , assay system STAT5a (Homo sapiens, UniProt P42229).
Resp: 48.5

Req: Name the recorded IC50 of CCOC(=O)c1ccc(-c2cc(OP(=O)(O)O)cc(-c3cc(OC)c(OC)c(OC)c3)c2)cc1 [6 g] , assay system STAT5a (Homo sapiens, UniProt P42229).
Resp: 91.2

Req: Name the recorded IC50 of COc1cc(-c2cc(OP(=O)(O)O)cc(-c3ccc(C(=O)O)cc3)c2)cc(OC)c1OC [6 h] , assay system STAT5a (Homo sapiens, UniProt P42229).
Resp: 36.8

Req: Name the recorded IC50 of COc1cc(-c2cc(OP(=O)(O)O)cc(-c3ccc(C(N)=O)cc3)c2)cc(OC)c1OC [6 f] , assay system STAT5a (Homo sapiens, UniProt P42229).
Resp: 68.9

Req: Name the recorded IC50 of COc1cc(-c2cc(OP(=O)(O)O)cc(-c3cc(Cl)c(Cl)c(Cl)c3)c2)cc(OC)c1OC [6 a] , assay system STAT5a (Homo sapiens, UniProt P42229).
Resp: 21.8

Req: Name the recorded IC50 of COc1cc(-c2cc(OP(=O)(O)O)cc(-c3ccc(F)cc3)c2)cc(OC)c1OC [6 d] , assay system STAT5a (Homo sapiens, UniProt P42229).
Resp: 66.5

Req: Name the recorded IC50 of COc1cc(-c2cc(OP(=O)(O)O)cc(-c3cc(F)c(F)c(F)c3)c2)cc(OC)c1OC [6 b] , assay system STAT5a (Homo sapiens, UniProt P42229).
Resp: 22.1

Req: Name the recorded IC50 of COc1cc(-c2cc(OP(=O)(O)O)cc(-c3ccc(Cl)cc3)c2)cc(OC)c1OC [6 c] , assay system STAT5a (Homo sapiens, UniProt P42229).
Resp: 45.7

Req: Name the recorded IC50 of COc1cc(-c2cc(OP(=O)(O)O)cc(-c3ccc(C(C)(C)C)cc3)c2)cc(OC)c1OC [6 j] , assay system STAT5a (Homo sapiens, UniProt P42229).
Resp: 66.9
